Give binding signal for every item shown.
Target: GST-Rok (full length) (Bacillus subtilis subsp. subtilis str. …, UniProt O34857 1-191)
Sequence: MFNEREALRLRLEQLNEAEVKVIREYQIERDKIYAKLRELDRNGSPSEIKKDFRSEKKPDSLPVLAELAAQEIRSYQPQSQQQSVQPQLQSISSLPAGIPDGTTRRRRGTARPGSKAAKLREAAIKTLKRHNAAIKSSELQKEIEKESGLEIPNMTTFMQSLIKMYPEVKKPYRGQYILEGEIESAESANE
Experiment: protein binding microarray; Rok is a gene silencer of Bacillus subtilis; high values mean tight binding
Details: protein: recombinant; tags: GST (pTH5325, pDEST15-Magic modified); dsDNA, one strand shown
In all, about 33,000 sequences were measured (“e-score”: median about -0.037, highest 2% from about 0.34 on). Many of the other results were omitted from the sample, so the highest values are more common in it than they were.
Only the number, expressed in E-score, is required.

[Q] Entry AATTTATG , system GST-Rok (full length) (Bacillus subtilis subsp. subtilis str. …, UniProt O34857 1-191): what binding signal was measured?
[A] 0.283

[Q] Would you mind doing ATTATTTA as well?
[A] 0.406

[Q] Would you mind doing AAAGCCGG as well?
[A] -0.147

[Q] Would you mind doing CGTATTTA as well?
[A] 0.261

[Q] Would you mind doing AGTTTCCA as well?
[A] 0.18

[Q] Would you mind doing AGTATTTA as well?
[A] 0.344

[Q] Would you mind doing GTTATTTA as well?
[A] 0.197

[Q] Would you mind doing CTTATTTA as well?
[A] 0.148

[Q] Would you mind doing AGTATTTG as well?
[A] 0.31

[Q] Would you mind doing GATTTATA as well?
[A] 0.315

[Q] Would you mind doing AGCAGCAG as well?
[A] -0.124
